- target_entity: MKNK1 (Homo sapiens, UniProt Q9BUB5, T385D)
- Construct: GST (N); purchased Carna Biosciences 02-145; host or cells: insect cells (baculovirus expression system)
- Sequence (Q9BUB5 1-424 isoform Q9BUB5-2 T344D): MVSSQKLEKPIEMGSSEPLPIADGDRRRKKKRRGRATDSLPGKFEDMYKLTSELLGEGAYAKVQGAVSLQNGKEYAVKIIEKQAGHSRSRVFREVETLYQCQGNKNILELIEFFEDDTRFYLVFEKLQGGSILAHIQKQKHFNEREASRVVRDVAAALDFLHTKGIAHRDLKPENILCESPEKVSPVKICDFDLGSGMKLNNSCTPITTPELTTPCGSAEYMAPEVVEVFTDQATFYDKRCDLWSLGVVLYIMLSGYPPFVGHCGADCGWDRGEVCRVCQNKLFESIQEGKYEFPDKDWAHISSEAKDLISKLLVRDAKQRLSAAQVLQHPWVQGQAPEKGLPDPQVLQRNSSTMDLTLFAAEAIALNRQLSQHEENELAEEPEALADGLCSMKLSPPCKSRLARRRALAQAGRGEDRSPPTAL
- experiment_notes: MKNK1 kinase assay (MKNK1 TR-FRET assay)
- Assay type: biochemical
- condition_parameters: Table 1c; 10 μM ATP, 15 min preincubation
pIC50: −log10 of the molar value.
outcome_measure: pIC50

1: CC1(C)CN(c2nccc3oc(-c4cnc5ccc(OCCCS(C)(=O)=O)nn45)cc23)CCO1
2: CCN(CCOC)c1nccc2oc(-c3cnc4ccc(OC[C@H]5CCC(=O)N5)nn34)cc12
3: CC1(C)CN(c2nccc3oc(-c4cnc5ccc(OCC(F)(F)F)nn45)cc23)CCN1
4: O=C1CC[C@H](COc2ccc3ncc(-c4cc5c(N6CCCCC6)nccc5o4)n3n2)N1
IN: hey, can you rank those molecules up there by pIC50? biggest number first please Present the labels in the sequence the task asks for.
OUT: 2, 4, 3, 1

###

- target_entity: MKNK1 (Homo sapiens, UniProt Q9BUB5, T385D)
- Construct: GST (N); purchased Carna Biosciences 02-145; host or cells: insect cells (baculovirus expression system)
- experiment_notes: MKNK1 kinase assay (MKNK1 TR-FRET assay)
- Assay type: biochemical
- condition_parameters: Table 1a; 10 μM ATP, 15 min preincubation
outcome_measure: IC50 (nM)

IN: What value of measured IC50 is listed for Cc1nocc1C(=O)N1CCC[C@H]1CCOc1ccc2ncc(-c3cc4ccccc4o3)n2n1 [Example I-52] ?
OUT: 1.7

IN: Which IC50 is listed for CC(C)(C)C(=O)N1CCC[C@H]1CCOc1ccc2ncc(-c3cc4ccccc4o3)n2n1 [Example I-46] ?
OUT: 1.2

IN: Could you share which IC50 value was measured for O=C(c1cccs1)N1CCC[C@H]1CCOc1ccc2ncc(-c3cc4ccccc4o3)n2n1 [Example I-43] ?
OUT: 1

IN: Report IC50 for O=C(NCCOc1ccc2ncc(-c3cc4ccccc4o3)n2n1)c1ccco1 [Example I-77] please.
OUT: 7.9

IN: Consider the molecule shown here: CC(C)(C)CC(=O)N1CCOC(COc2ccc3ncc(-c4cc5ccccc5o4)n3n2)C1 (stereo not shown) [Example I-14] What is its recorded IC50?
OUT: 5.1

1: COc1cccc2oc(-c3cnc4ccc(OCCN5CCNC5=O)nn34)cc12 [Example I-12]
2: CC(=O)N1CCC[C@H]1CCOc1ccc2ncc(-c3cc4cc(Cl)ccc4o3)n2n1 [Example I-31]
IN: Response body: label of entry with the larger IC50; valid values 1 , 2 . Indicate which entry you chose by stating its label.
OUT: 2

1: CC(=O)N[C@H]1C[C@H](Oc2ccc3ncc(-c4cc5ccccc5o4)n3n2)C1 [Example I-11]
2: O=C1CCCC(COc2ccc3ncc(-c4cc5ccccc5o4)n3n2)N1 (stereo not shown) [Example I-8]
IN: Between item 1 and item 2 , which reported IC50 is smaller? Answer by stating the label of the chosen item.
OUT: 1

###

- target_entity: MKNK1 (Homo sapiens, UniProt Q9BUB5, T385D)
- Construct: GST (N); purchased Carna Biosciences 02-145; host or cells: insect cells (baculovirus expression system)
- experiment_notes: MKNK1 kinase assay (MKNK1 TR-FRET assay)
- Format: biochemical
- condition_parameters: Table 1c; 10 μM ATP, 15 min preincubation
pIC50: −log10 of the molar value.
outcome_measure: pIC50

IN: What measured pIC50 goes with "CS(=O)(=O)CCCOc1ccc2ncc(-c3cc4c(N5CCCC5)nccc4o3)n2n1" ?
OUT: 8.26

a: CC(C)(C)N1CCN(c2nccc3oc(-c4cnc5ccc(OC[C@H]6CCC(=O)N6)nn45)cc23)CC1
b: COC[C@H]1CCCN1c1nccc2oc(-c3cnc4ccc(OC[C@H](C)N)nn34)cc12
c: CCN(CCOC)c1nccc2oc(-c3cnc4ccc(O[C@H]5Cc6ccccc6[C@H]5N)nn34)cc12
d: C[C@H](N)COc1ccc2ncc(-c3cc4c(N5CCN(C)CC5)nccc4o3)n2n1
e: O=C1CC[C@H](COc2ccc3ncc(-c4cc5c(N6CCC(CO)CC6)nccc5o4)n3n2)N1
IN: // smallest pIC50 at index 0, largest at the end To answer, arrange all of the labels according to the requested order.
OUT: c, d, a, e, b
